Assay: Pharmacokinetics in rats, IV and oral
Format: in vivo, SD rats
Details: male, SD, plasma; rat, IV, 3 mg/kg
valueKind: AUC(0-t)
Respond with the figure and its unit, in that order.

The reported value for C=CC(=O)N1CCN(c2c(C#N)cnc3c(F)c(-c4ccc(F)c5sc(N)nc45)c(Cl)cc23)CC1 in terms of AUC(0-t) is 3310 ng·h/mL

----------
Assay: Pharmacokinetics in rats, IV and oral
Type: in vivo, SD rats
Settings: male, SD, plasma; rat, PO, 30 mg/kg
valueKind: AUC(0-t) (ng·h/mL)
Field format: number, assumed ng·h/mL, no unit text.

Query C=CC(=O)N1CCN(c2c(C#N)cnc3c(F)c(-c4ccc(F)c5sc(N)nc45)c(Cl)cc23)CC1 [Example 9] yields AUC(0-t) of 7780

----------
Measured inhibition at 5 min, 10 µM, listed per entry for reference.
Target: CYP3A4 (Homo sapiens, UniProt P08684)
Construct: Human liver microsomes (Corning, Cat #452161); tissue Corning 452161; host or cells: human liver microsomes
Sequence (P08684 whole entry): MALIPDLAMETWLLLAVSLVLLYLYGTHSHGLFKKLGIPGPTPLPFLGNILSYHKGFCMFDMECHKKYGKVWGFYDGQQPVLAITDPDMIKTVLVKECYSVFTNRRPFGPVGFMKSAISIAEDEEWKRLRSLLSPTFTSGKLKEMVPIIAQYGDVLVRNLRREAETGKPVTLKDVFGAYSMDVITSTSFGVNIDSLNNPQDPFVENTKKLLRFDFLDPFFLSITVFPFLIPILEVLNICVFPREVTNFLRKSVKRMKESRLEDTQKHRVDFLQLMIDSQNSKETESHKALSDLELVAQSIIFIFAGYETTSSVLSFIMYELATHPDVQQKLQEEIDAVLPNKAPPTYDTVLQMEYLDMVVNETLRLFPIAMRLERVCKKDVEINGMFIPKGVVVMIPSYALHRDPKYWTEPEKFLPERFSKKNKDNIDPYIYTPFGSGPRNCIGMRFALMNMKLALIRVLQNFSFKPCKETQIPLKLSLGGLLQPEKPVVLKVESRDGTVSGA
Assay: CYP inhibition in human liver microsomes
Format: in vitro ADME
Settings: pH 7.4, probe midazolam, substrate midazolam, read-out: CYP inhibition rate (%) CYP3A4 (midazolam)
Give a bare numeral; the unit % is implied.

Completed entries (count: 3):
C=CC(=O)N1CCN(c2nc(=O)n(-c3c(C)ccnc3C(C)C)c3nc(-c4c(O)cccc4F)c(F)cc23)[C@@H](C)C1 (atropisomer, axis not shown) [AMG510, reference compound] : 63.7
C=CC(=O)N1CCN(c2c(C#N)cnc3c(F)c(-c4ccc(F)c5sc(N)nc45)c(Cl)cc23)C[C@H]1C : 22
C=CC(=O)N1CCN(c2c(C#N)cnc3c(F)c(-c4ccc(F)c5sc(N)nc45)c(Cl)cc23)CC1 : 24

In the following, a different compound is considered.
Tested on CYP3A4 (Homo sapiens, UniProt P08684): C=CC(=O)N1CCN(c2ncnc3c(F)c(-c4ccc(F)c5sc(N)nc45)c(Cl)cc23)CC1 [Ref. Comp. A, reference compound] . Observed inhibition at 5 min, 10 µM: 11.1

----------
Biological target: CYP2D6 (Homo sapiens, UniProt P10635)
Construct: Human liver microsomes (Corning, Cat #452161); tissue Corning 452161; host or cells: human liver microsomes
Sequence (P10635 whole entry): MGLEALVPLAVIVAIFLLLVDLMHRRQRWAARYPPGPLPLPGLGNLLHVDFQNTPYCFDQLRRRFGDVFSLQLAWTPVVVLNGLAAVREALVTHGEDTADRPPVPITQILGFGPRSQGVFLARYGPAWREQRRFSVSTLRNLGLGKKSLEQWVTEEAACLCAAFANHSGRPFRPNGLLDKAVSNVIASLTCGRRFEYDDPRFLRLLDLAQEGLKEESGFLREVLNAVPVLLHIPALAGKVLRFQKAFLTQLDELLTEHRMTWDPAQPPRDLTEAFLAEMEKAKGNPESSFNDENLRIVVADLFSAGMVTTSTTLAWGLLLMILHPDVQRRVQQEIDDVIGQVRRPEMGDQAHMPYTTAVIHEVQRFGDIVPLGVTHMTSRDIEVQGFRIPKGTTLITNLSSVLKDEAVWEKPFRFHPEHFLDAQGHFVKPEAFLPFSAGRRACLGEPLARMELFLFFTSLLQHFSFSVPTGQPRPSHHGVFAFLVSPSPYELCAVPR
Experiment: CYP inhibition in human liver microsomes
Assay type: in vitro ADME
Details: pH 7.4, read-out: CYP inhibition rate (%) 2D6
The reader will find reported inhibition at 10 min, 10 µM values listed item by item below.

Some solved cases for reference:
C=CC(=O)N1CCN(c2c(C#N)cnc3c(F)c(-c4ccc(F)c5sc(N)nc45)c(Cl)cc23)C[C@H]1C : 13.8%
C=CC(=O)N1CCN(c2nc(=O)n(-c3c(C)ccnc3C(C)C)c3nc(-c4c(O)cccc4F)c(F)cc23)[C@@H](C)C1 (atropisomer, axis not shown) [AMG510, reference compound] : 23.7%
C=CC(=O)N1CCN(c2ncnc3c(F)c(-c4ccc(F)c5sc(N)nc45)c(Cl)cc23)CC1 [Ref. Comp. A, reference compound] : 32.6%

We now examine a further compound.
Sure, the documented inhibition at 10 min, 10 µM for C=CC(=O)N1CCN(c2c(C#N)cnc3c(F)c(-c4ccc(F)c5sc(N)nc45)c(Cl)cc23)CC1 is -11.4%

----------
Assay: Pharmacokinetics in rats, IV and oral
Type: in vivo, SD rats
Conditions: male, SD, plasma; rat, PO, 30 mg/kg
valueKind: AUC(0-inf) (ng·h/mL)
Give the quantity in ng·h/mL, number only.

Note to self: AUC(0-inf) recorded for C=CC(=O)N1CCN(c2c(C#N)cnc3c(F)c(-c4ccc(F)c5sc(N)nc45)c(Cl)cc23)CC1 [Example 9] was 7870

----------
System: SW837 (KRas-G12C)
Assay: KRas mutant cell proliferation, CellTiter-Glo (CTG)
Type: cell-based
Details: Homo sapiens, rectal cancer, 72 h, read-out: Relative IC50
valueKind: pIC50
On this scale, pIC50 is minus log10 of a concentration expressed in M (mol/L).

C=CC(=O)N1CCN(c2c(C#N)cnc3c(F)c(-c4ccc(F)c5sc(N)nc45)c(Cl)cc23)CC1 : 7.77

Please find the next compound below.
Considering C=CC(=O)N1CCN(c2ncnc3c(F)c(-c4ccc(F)c5sc(N)nc45)c(Cl)cc23)CC1 [Ref. Comp. A, reference compound] , its pIC50 with SW837 (KRas-G12C) was recorded as 7.74

----------
Target: CYP2C9 (Homo sapiens)
Construct: Human liver microsomes (Corning, Cat #452161); tissue Corning 452161; host or cells: human liver microsomes
Sequence (P11712 whole entry): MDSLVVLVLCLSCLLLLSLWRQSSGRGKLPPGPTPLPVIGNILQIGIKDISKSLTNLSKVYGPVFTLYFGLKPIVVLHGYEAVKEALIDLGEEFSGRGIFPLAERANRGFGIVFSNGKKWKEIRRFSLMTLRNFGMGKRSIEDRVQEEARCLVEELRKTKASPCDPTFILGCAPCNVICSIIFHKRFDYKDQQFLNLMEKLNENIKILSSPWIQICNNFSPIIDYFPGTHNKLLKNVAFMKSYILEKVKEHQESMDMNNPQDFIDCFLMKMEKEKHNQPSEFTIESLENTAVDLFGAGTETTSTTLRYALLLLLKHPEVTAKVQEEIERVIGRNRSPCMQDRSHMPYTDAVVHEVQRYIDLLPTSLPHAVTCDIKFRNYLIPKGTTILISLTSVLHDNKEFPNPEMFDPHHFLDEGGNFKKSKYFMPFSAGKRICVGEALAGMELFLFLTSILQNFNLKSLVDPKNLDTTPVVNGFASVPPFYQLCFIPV
Assay: CYP inhibition in human liver microsomes
Type: in vitro ADME
Conditions: pH 7.4, read-out: CYP inhibition rate (%) 2C9
valueKind: inhibition at 10 min, 10 µM (%)
Note: unit % is implicit; provide only the numeric part.

In the examples that follow, each entry is paired with its recorded inhibition at 10 min, 10 µM.
C=CC(=O)N1CCN(c2c(C#N)cnc3c(F)c(-c4ccc(F)c5sc(N)nc45)c(Cl)cc23)CC1 : 42.5
C=CC(=O)N1CCN(c2c(C#N)cnc3c(F)c(-c4ccc(F)c5sc(N)nc45)c(Cl)cc23)C[C@H]1C : 49.9
C=CC(=O)N1CCN(c2ncnc3c(F)c(-c4ccc(F)c5sc(N)nc45)c(Cl)cc23)CC1 [Ref. Comp. A, reference compound] : 52.4

Okay, next one:
Please fill in: inhibition at 10 min, 10 µM reported for C=CC(=O)N1CCN(c2nc(=O)n(-c3c(C)ccnc3C(C)C)c3nc(-c4c(O)cccc4F)c(F)cc23)[C@@H](C)C1 (atropisomer, axis not shown) [AMG510, reference compound] = 26.2

----------
Overview of reported pIC50 across a group of compounds:
System: BaF3-KRas-G12C-Y96D
Assay: Proliferation of KRas G12C inhibitor-resistant cell model, CTG
Type: cell-based
Conditions: Adagrasib acquired-resistance model
// pIC50: -log10(molar conc.)

C=CC(=O)N1CCN(c2ncnc3c(F)c(-c4ccc(F)c5sc(N)nc45)c(Cl)cc23)CC1 [Ref. Comp. A, reference compound] : 5.49

// switching to the query compound
GET /value?item= C=CC(=O)N1CCN(c2c(C#N)cnc3c(F)c(-c4ccc(F)c5sc(N)nc45)c(Cl)cc23)CC1 [Example 9] &field=pIC50 returns 5.89

----------
Test: Pharmacokinetics in rats, IV and oral
Type: in vivo, SD rats
Settings: male, SD, plasma; rat, PO, 30 mg/kg
valueKind: Cmax (ng/mL)
Answer format: numeric, ng/mL implied, no suffix.

// field: Cmax; key: C=CC(=O)N1CCN(c2c(C#N)cnc3c(F)c(-c4ccc(F)c5sc(N)nc45)c(Cl)cc23)CC1 ; value = 2390

----------
Listing: inhibition at 5 min, 10 µM of selected compounds
Molecular target: CYP3A4 (Homo sapiens, UniProt P08684)
Construct: Human liver microsomes (Corning, Cat #452161); tissue Corning 452161; host or cells: human liver microsomes
Test: CYP inhibition in human liver microsomes
Assay type: in vitro ADME
Details: pH 7.4, probe testosterone, substrate testosterone, read-out: CYP inhibition rate (%) CYP3A4 (testosterone)
Note: unit % is implicit; provide only the numeric part.

C=CC(=O)N1CCN(c2ncnc3c(F)c(-c4ccc(F)c5sc(N)nc45)c(Cl)cc23)CC1 [Ref. Comp. A, reference compound] : 10.9

For this compound ( C=CC(=O)N1CCN(c2c(C#N)cnc3c(F)c(-c4ccc(F)c5sc(N)nc45)c(Cl)cc23)CC1 ), measured inhibition at 5 min, 10 µM is 30.9

Reported inhibition at 5 min, 10 µM ( C=CC(=O)N1CCN(c2nc(=O)n(-c3c(C)ccnc3C(C)C)c3nc(-c4c(O)cccc4F)c(F)cc23)[C@@H](C)C1 (atropisomer, axis not shown) [AMG510, reference compound] ) = 24.8

C=CC(=O)N1CCN(c2c(C#N)cnc3c(F)c(-c4ccc(F)c5sc(N)nc45)c(Cl)cc23)C[C@H]1C yielded inhibition at 5 min, 10 µM of 16.9

----------
Test system: SW837 (KRas-G12C)
Assay: KRas mutant cell proliferation, CellTiter-Glo (CTG)
Format: cell-based
Conditions: Homo sapiens, rectal cancer, 72 h, read-out: Absolute IC50
valueKind: pIC50
Quick note: pIC50 means taking -log10 of the concentration in moles per liter.

Entry C=CC(=O)N1CCN(c2c(C#N)cnc3c(F)c(-c4ccc(F)c5sc(N)nc45)c(Cl)cc23)CC1 , tested on SW837 (KRas-G12C), has a reported pIC50 of 6.37

----------
Test: Cassette pharmacokinetic experiment in rats (IV)
Assay type: in vivo
Conditions: rat, plasma, 1 mg/kg, male SD rats, tail vein IV, 1 mg/mL each compound at 1 mL/kg
// reported log10(clearance) for each item listed
Log10 applied to clearance; unit prior to transform: mL/min/kg.

Solved entries (count: 3):
C=CC(=O)N1CCN(c2c(C#N)c(OC)nc3c(F)c(-c4ccc(F)c5sc(N)nc45)c(Cl)cc23)CC1 : 0.93
C=CC(=O)N1CCN(c2c(C#N)c(-c3cn(C)nc3C)nc3c(F)c(-c4ccc(F)c5sc(N)nc45)c(Cl)cc23)CC1 : 1.37
C=CC(=O)N1CCN(c2ncnc3c(F)c(-c4ccc(F)c5sc(N)nc45)c(Cl)cc23)CC1 [Ref. Comp. A, reference compound] : 1.43

Given item C=CC(=O)N1CCN(c2c(C#N)c(O[C@@H]3CN(C)C[C@H]3OC)nc3c(F)c(-c4ccc(F)c5sc(N)nc45)c(Cl)cc23)C[C@H]1C , the value recorded as its log10(clearance) is 1.32

log10(clearance) recorded for this compound, C=CC(=O)N1CCN(c2nc(=O)n(-c3c(C)ccnc3C(C)C)c3nc(-c4c(O)cccc4F)c(F)cc23)[C@@H](C)C1 (atropisomer, axis not shown) [AMG510, reference compound] , is 1.86

GET /value?item= C=C(F)C(=O)N1CCN(c2c(C#N)cnc3c(F)c(-c4ccc(F)c5sc(N)nc45)c(Cl)cc23)CC1 &field=log10(clearance) returns 0.77

Entry C=CC(=O)N1CCN(c2c(C#N)c(-c3cccc4c3CCN(C)C4)nc3c(F)c(-c4ccc(F)c5sc(N)nc45)c(Cl)cc23)CC1 ; log10(clearance) = 1.44

Looking up C=CC(=O)N1CCN(c2c(C#N)cnc3c(F)c(-c4ccc(F)c5sc(N)nc45)c(Cl)cc23)CC1 , I found its log10(clearance) recorded as 1.20

Value of measured log10(clearance) for the entry C=CC(=O)N1CCN(c2c(C#N)c(-c3ccnn3C)nc3c(F)c(-c4ccc(F)c5sc(N)nc45)c(Cl)cc23)CC1 : 1.18
